# measured-target: monomeric alpha-synuclein, P37840
# experimental-protocol: SPR, captured mAb
# protocol-conditions: remark: other sources report otherwise
koff values for the binders below.
The figure you give is taken to be in s⁻¹; do not add the unit.

>>> measured_number("ACI-7088-4305H7-Ab1 (antibody, V domains shown) VH: EVQLQQSGAELVRPGASVKLSCTASGFNIKDDYMHWVKQRPEQGLEWIGWIDPENGDTEYASKFQGKATMIADTSSNTAYLQLSSLTSEDTAVYYCKTWGTTQALFPYWGQGTLVTVSS VL: DIVMTQSQKFMSTSVGDRVSITCKASQNVGTAVGWYQQKAGQSPKLLIHSASNRYTGVPDRFTGSGSGTDFTLTINNMQSEDLADYFCQQYRSYPLTFGAGTKLELK")
0.0924
>>> measured_number("ACI-8033-19A2-Ab1 (antibody, V domains shown) VH: EVQLVESGGGLVQPKGSLKLSCAASGFSFNTYAMNWVRQAPGKGLEWVARIRSKSNNYATYYVDSVKDRFTISRDDSESMLYLQMNNLKTEDTALYYCVSESAYWGQGTLVTVSA VL: DVVMTQTPLSLPVSLGDQASISCRSSQSLVHSNGNTYLYWYLQKPGQSPKLLIYKVSNRLSGVPDRFSGSGSGTDFTLKISRVEAEDLGVYFCSQSTHVPFTFGSGTKLEIK")
0.0828

Moving on to the next binder.
Answer with the recorded koff for the binder listed here: ACI-7067-1112H8-Ab2 (antibody, V domains shown) VH: EVKLEESGGGLVQPGGSMKLSCAASGFTFTDAWMNWVRQSPEKGLEWIAEIRNKAHNYATYYAESVKGRFDISGDDSKSSVYLQMNNLRVEDTGIYYCTIYSYWGPGTLVTVSA VL: SIVMTQTPKFLLMSPGDRVTMTCTASQSVSNYVAWYQQKPGQSPKLLIYSASNRFTGVPDRFTGSGYGTDFTFTINTVQTEDMAVYFCQQDYTSPYTFGGGTKLEIK
0.00158

Ref: patent US20250340623A1
